experiment: T. gondii ME49Luc in HeLa cells, luciferase assay, 72 h, no IFN-y (AID 1259421); conditions: concentration not given here
The whole screen tested about 6,400 compounds, of which about 610 (9.5%) were called active. No stated cut-off is given here; in the data, active means activity change below about -70%; inconclusive means no clear call, values can overlap the other calls; inactive means above that. This excerpt belongs to a sample that is enriched for actives.
Hello, when you answer, please use one of the following outcomes: TRUE = active, FALSE = inactive

For this compound, state the assay outcome: CN(C)CCOc1ccc(-c2nc(-c3ccc4c(c3)CC/C4=N\O)c(-c3ccncc3)[nH]2)cc1
TRUE

Another compound to check: CC1OC(OCC2OC(Oc3c(-c4ccc(O)c(O)c4)oc4cc(O)cc(O)c4c3=O)C(O)C(O)C2O)C(O)C(O)C1O (centres undefined)
FALSE

Another compound to check: Nc1nc(Nc2ccccc2)nc2c1ncn2C1OC(CO)C(O)C1O (centres undefined)
FALSE

Another compound to check: CC(C)(C)NC(=O)N[C@H](C(=O)N1C[C@H]2[C@@H]([C@H]1C(=O)NC(CC1CCC1)C(=O)C(N)=O)C2(C)C)C(C)(C)C (some centres undefined)
FALSE

* * *

assay: T. gondii ME49Luc in HeLa cells, luciferase assay, 72 h, no IFN-y (AID 1259421); conditions: stronger effect = lower value, concentration not given here
In all, about 6,400 compounds went through this assay and about 610 (9.5%) were called active. The sample as a whole holds a higher share of actives than the screen did.
metric: activity change, negative = inhibition (%)
Hi! Could you send only the number? It should be in %, unit omitted.

Requested field: activity change, negative = inhibition. Item: CC(C)CN(C[C@@H](O)[C@H](Cc1ccccc1)NC(=O)O[C@H]1CCOC1)S(=O)(=O)c1ccc(N)cc1
0.811

Another compound to check: Cn1ncc(Cl)c1-c1cc(C(=O)N[C@H](CN)Cc2cccc(F)c2)sc1Cl
-49.2

Another compound to check: COc1cc(NC(=O)Nc2cccc(CNC(=O)O[C@H]3CCOC3)c2)ccc1-c1cnco1
-79.3

* * *

assay: T. gondii ME49Luc in HeLa cells, luciferase assay, 72 h, no IFN-y (AID 1259421); conditions: stronger effect = lower value, concentration not given here
About 610 (9.5%) of roughly 6,400 compounds were called active. The full list was thinned out, with actives kept by preference.
Assignment: determine reported activity change, negative = inhibition for the given compounds.
Hi! Could you send only the number? It should be in %, unit omitted.

Requested field: activity change, negative = inhibition. Item: O=C(NCCCl)N(CCCl)[NH2+][O-]
-12

Another compound to check: C[C@@H]1CN(CCCn2c3ccccc3c3ccccc32)C[C@H](C)N1
18.2

Another compound to check: COc1cc(NS(C)(=O)=O)ccc1Cc1c2ccccc2nc2ccccc12
-78.8

Another compound to check: CC(=O)O[C@H]1C[C@@H](OC(C)=O)C(C)(C)C2C[C@@H](O)[C@]3(C)C(CC[C@@]4(C)[C@H](c5ccoc5)OC(=O)[C@H]5O[C@]543)[C@]21C (stereo partly drawn)
5.63

Another compound to check: CC(=O)Nc1ccc(S(=O)(=O)Nc2onc(C)c2C)cc1
6.51

Another compound to check: CCOC(=O)[C@@H](N)Cc1ccc(-c2cc(O[C@H](c3ccc(Cl)cc3-n3ccc(C)n3)C(F)(F)F)nc(N)n2)cc1
-85

Another compound to check: CC1CN(CCCn2c3ccccc3c3ccccc32)CC(C)N1 (stereo not drawn)
-30.6

Another compound to check: CC(C)(C)NCC(O)COc1ccc(NC(=O)NC2CCCCC2)cc1 (stereo not drawn)
3.16

Another compound to check: C[C@@H]1O[C@@H](O[C@@H]2[C@H](Oc3cc(O)c(C(=O)CCc4ccc(O)cc4)c(O)c3)O[C@H](CO)[C@@H](O)[C@@H]2O)[C@H](O)[C@H](O)[C@H]1O
5.31

Another compound to check: CNC(=O)CN(CCN(CCN(CC(=O)O)CC(=O)NC)CC(=O)O)CC(=O)O.[Gd]
9.1

Another compound to check: Clc1ccc(COC(Cn2ccnc2)c2ccc(Cl)cc2Cl)c(Cl)c1 (stereo not drawn)
-91.6

Another compound to check: Cc1ccc(C(=O)Nc2ccc(CN3CCN(C)CC3)c(C(F)(F)F)c2)cc1C#Cc1cnc2cccnn12
-83

Another compound to check: O=C(OCC(O)CO)c1ccccc1Nc1ccnc2cc(Cl)ccc12 (stereo not drawn)
5.66

Another compound to check: O=C(CCCCCN1C(=O)c2cccc3cccc(c23)C1=O)NO
-90.6

Another compound to check: O=C(CN1C(=O)c2ccccc2S1(=O)=O)Nc1ccc(O)cc1
6.78

Another compound to check: CN1C2CCC1CC(OC(=O)c1c[nH]c3ccccc13)C2 (stereo not drawn)
2.23

Another compound to check: CC(CCC(=O)NCC(=O)O)C1CCC2C3CCC4CC(O)CCC4(C)C3CC(O)C12C (stereo not drawn)
-5.76

Another compound to check: CC(C)c1ccc(C(=O)NCCOc2ccc(C(=O)O)cc2)cc1
52.4
